Molecular target: hMAO-B (Homo sapiens, UniProt P27338)
Sequence (P27338 whole entry): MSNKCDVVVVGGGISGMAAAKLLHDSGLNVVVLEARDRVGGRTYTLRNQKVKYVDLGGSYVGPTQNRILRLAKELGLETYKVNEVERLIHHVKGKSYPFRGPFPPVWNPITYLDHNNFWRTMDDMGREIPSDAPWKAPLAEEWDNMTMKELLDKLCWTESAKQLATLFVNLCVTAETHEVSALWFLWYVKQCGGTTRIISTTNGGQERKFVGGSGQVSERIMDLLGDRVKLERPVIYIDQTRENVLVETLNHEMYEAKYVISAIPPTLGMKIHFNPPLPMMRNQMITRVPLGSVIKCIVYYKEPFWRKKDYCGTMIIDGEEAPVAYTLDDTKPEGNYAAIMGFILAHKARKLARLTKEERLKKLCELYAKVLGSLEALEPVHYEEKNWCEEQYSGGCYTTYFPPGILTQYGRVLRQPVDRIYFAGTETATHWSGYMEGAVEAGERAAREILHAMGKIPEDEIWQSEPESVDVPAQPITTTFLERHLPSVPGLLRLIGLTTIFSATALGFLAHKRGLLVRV
Assay: hMAO-B fluorescence bioassay
Format: biochemical
endpoint: IC50 (µM)
Could you give me the number in µM? Just the number is fine.

Consider the reported IC50 for these compounds:
compound	result_units	IC50
COc1cc(C=O)ccc1O	µM	45.7
O=C(/C=C/c1ccc(O)c(O)c1)O[C@@H]1C[C@](O)(C(=O)O)C[C@@H](O)[C@H]1O	µM	69.6
CCCC[C@@H]1OC(=O)C2=CCCC[C@H]21 [Neocnidilide]	µM	0.494

--- query ---
So what's the measured IC50 for this one? COc1ccc(-c2coc3cc(O)ccc3c2=O)cc1O [Calycosin, reference compound]
24

###

Biological target: hMAO-A (Homo sapiens)
Sequence (P21397 whole entry): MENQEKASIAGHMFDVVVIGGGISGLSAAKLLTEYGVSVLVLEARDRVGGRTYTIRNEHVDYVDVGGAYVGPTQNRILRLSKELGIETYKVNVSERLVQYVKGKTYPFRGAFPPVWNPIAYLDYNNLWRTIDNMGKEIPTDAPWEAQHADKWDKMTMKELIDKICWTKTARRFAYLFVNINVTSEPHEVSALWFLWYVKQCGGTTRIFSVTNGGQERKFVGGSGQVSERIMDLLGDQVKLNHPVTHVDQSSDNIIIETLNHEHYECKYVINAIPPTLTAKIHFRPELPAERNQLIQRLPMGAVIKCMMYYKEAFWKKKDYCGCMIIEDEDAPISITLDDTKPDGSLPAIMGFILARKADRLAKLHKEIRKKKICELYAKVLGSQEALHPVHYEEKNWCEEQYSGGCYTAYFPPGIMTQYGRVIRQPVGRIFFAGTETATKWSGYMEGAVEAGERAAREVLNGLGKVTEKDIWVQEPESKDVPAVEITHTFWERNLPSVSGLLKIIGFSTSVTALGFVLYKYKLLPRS
Experiment: hMAO-A fluorescence bioassay
Assay type: biochemical
Below is a list of entries, each paired with its recorded pIC50 value.
Worth noting: pIC50 values are minus log10 of concentrations stated in mol/L.

molecule	measurement_target	experimental_value
COc1cc(C=O)ccc1O	hMAO-A (Homo sapiens)	4.07
O=C(O)/C=C/c1ccc(O)c(O)c1	hMAO-A (Homo sapiens)	4.22
O=C(/C=C/c1ccc(O)c(O)c1)O[C@@H]1C[C@](O)(C(=O)O)C[C@@H](O)[C@H]1O	hMAO-A (Homo sapiens)	4.08

Below: the item to evaluate.
Can you look up the measured pIC50 of CCCC[C@@H]1OC(=O)C2=CCCC[C@H]21 [Neocnidilide] for me?
3.99

###

Biological target: hMAO-B (Homo sapiens)
Assay: hMAO-B fluorescence bioassay
Assay type: biochemical
Conditions: Inhibition (IC50) hMAO-B, Table 1
endpoint: IC50 (µM)
Field: numeric (µM). Do not append units.

Form field: reported IC50 of "O=C(O)/C=C/c1ccc(O)c(O)c1"
33.1

Reference source: paper PMC10985270
